B1: library; numbered along this chain (parent)
chain: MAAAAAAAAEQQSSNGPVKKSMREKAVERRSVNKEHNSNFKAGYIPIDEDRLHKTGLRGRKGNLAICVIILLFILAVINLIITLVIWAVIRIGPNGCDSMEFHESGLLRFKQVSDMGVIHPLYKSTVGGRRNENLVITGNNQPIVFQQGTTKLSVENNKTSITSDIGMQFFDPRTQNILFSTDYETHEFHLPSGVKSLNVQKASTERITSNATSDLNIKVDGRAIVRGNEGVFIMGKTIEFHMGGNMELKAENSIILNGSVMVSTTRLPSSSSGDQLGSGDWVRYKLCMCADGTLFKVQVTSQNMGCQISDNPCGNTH

# Variants of: B1
# test-details: SGCB cell-surface expression functional score (HA stain, bin4 vs bin1, normalised to synonymous) (log10 ratio); higher = more cell-surface SGCB (functional)
readout-type: SGCB cell-surface expression functional score (log10)
Would you mind answering with just the numeric figure?

Summary for this variant, "I239S" : SGCB cell-surface expression functional score (log10) is -1.1

Summary for this variant, "L216Q" : SGCB cell-surface expression functional score (log10) is -0.15

Summary for this variant, "A4K" : SGCB cell-surface expression functional score (log10) is -0.03

Summary for this variant, "H53P" : SGCB cell-surface expression functional score (log10) is 0.19

Summary for this variant, "N246T" : SGCB cell-surface expression functional score (log10) is 0.94

Summary for this variant, "H103P" : SGCB cell-surface expression functional score (log10) is -0.42

More entries:
Summary for this variant, "G43I" : SGCB cell-surface expression functional score (log10) is -0.07

Summary for this variant, "H242N" : SGCB cell-surface expression functional score (log10) is 0.39

Summary for this variant, "S21T" : SGCB cell-surface expression functional score (log10) is 0.07
